B1: Pistol ribozyme (parent)
chain: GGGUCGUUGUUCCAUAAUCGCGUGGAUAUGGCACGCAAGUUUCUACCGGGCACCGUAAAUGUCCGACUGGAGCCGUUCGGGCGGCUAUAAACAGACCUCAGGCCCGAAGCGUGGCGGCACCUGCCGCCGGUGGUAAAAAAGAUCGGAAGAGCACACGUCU

Variants of: B1
TEST DETAILS: aptazyme ON/OFF ratio, guanine; higher = stronger switching; co-transcriptional cleavage with and without guanine
Each entry below lists one item and its recorded aptazyme ON/OFF ratio value.
ASSAY METRIC: aptazyme ON/OFF ratio

[[record]]
mutation_label = "U10A U11C C12G C13U"
assay_metric = "aptazyme ON/OFF ratio"
reported_value = 1.23

[[record]]
mutation_label = "U7G U8A G9U U10C U11A C13G"
assay_metric = "aptazyme ON/OFF ratio"
reported_value = 1.05

[[record]]
mutation_label = "U7C U8G G9A U10C U11G C12U C13U"
assay_metric = "aptazyme ON/OFF ratio"
reported_value = 1.28

[[record]]
mutation_label = "U7C G9U U11A C12G"
assay_metric = "aptazyme ON/OFF ratio"
reported_value = 1.33

[[record]]
mutation_label = "U8G G9C U10A C12A C13U"
assay_metric = "aptazyme ON/OFF ratio"
reported_value = 1.17

[[record]]
mutation_label = "U8A U10C C12U"
assay_metric = "aptazyme ON/OFF ratio"
reported_value = 3.12

[[record]]
mutation_label = "U7C U8G G9U U10G U11A C12G"
assay_metric = "aptazyme ON/OFF ratio"
reported_value = 1.17

[[record]]
mutation_label = "U7C G9C U10A U11A C12G C13U"
assay_metric = "aptazyme ON/OFF ratio"
reported_value = 1.07

[[record]]
mutation_label = "U7A U8A G9U U10C U11G C12A C13A"
assay_metric = "aptazyme ON/OFF ratio"
reported_value = 1.14

[[record]]
mutation_label = "U7G U8A G9U U10A U11G C12U C13A"
assay_metric = "aptazyme ON/OFF ratio"
reported_value = 1.07

[[record]]
mutation_label = "U10C U11C"
assay_metric = "aptazyme ON/OFF ratio"
reported_value = 1.06

[[record]]
mutation_label = "U7C U8G G9U U10C C12A C13G"
assay_metric = "aptazyme ON/OFF ratio"
reported_value = 1.19

[[record]]
mutation_label = "U7A U10C U11C C13G"
assay_metric = "aptazyme ON/OFF ratio"
reported_value = 1.07

[[record]]
mutation_label = "U7C U8G G9C C12G C13G"
assay_metric = "aptazyme ON/OFF ratio"
reported_value = 1.12

[[record]]
mutation_label = "U7A U8C G9A U11G C12A C13A"
assay_metric = "aptazyme ON/OFF ratio"
reported_value = 1.22

[[record]]
mutation_label = "U8A U10A U11C C12A C13A"
assay_metric = "aptazyme ON/OFF ratio"
reported_value = 1.08

[[record]]
mutation_label = "U7A U8G G9C U11G C12G C13G"
assay_metric = "aptazyme ON/OFF ratio"
reported_value = 1.18

[[record]]
mutation_label = "U8A U11G C12U"
assay_metric = "aptazyme ON/OFF ratio"
reported_value = 1.28

[[record]]
mutation_label = "U7C G9U U10G U11A C13A"
assay_metric = "aptazyme ON/OFF ratio"
reported_value = 1.09

[[record]]
mutation_label = "U7G U8C G9U U11A C12G"
assay_metric = "aptazyme ON/OFF ratio"
reported_value = 2.17

[[record]]
mutation_label = "U8C G9U U10C U11G C12A C13A"
assay_metric = "aptazyme ON/OFF ratio"
reported_value = 1.19

[[record]]
mutation_label = "U7A U8G G9C U10A C13U"
assay_metric = "aptazyme ON/OFF ratio"
reported_value = 1.3

[[record]]
mutation_label = "U8A G9A U10G U11C C12U C13G"
assay_metric = "aptazyme ON/OFF ratio"
reported_value = 1.16

[[record]]
mutation_label = "U7C U8G U10C U11A C13U"
assay_metric = "aptazyme ON/OFF ratio"
reported_value = 3.36

[[record]]
mutation_label = "U7A G9C U10A C12U C13G"
assay_metric = "aptazyme ON/OFF ratio"
reported_value = 1.11

[[record]]
mutation_label = "U7C U8G G9C U10C C12A C13A"
assay_metric = "aptazyme ON/OFF ratio"
reported_value = 1.06

[[record]]
mutation_label = "U7C U8C G9A U10C C12G C13U"
assay_metric = "aptazyme ON/OFF ratio"
reported_value = 1.11

[[record]]
mutation_label = "U7C U8G G9U U10C C12A"
assay_metric = "aptazyme ON/OFF ratio"
reported_value = 1.68

[[record]]
mutation_label = "U7C U8G G9U U10A U11C"
assay_metric = "aptazyme ON/OFF ratio"
reported_value = 1.04

[[record]]
mutation_label = "G9A C12U C13A"
assay_metric = "aptazyme ON/OFF ratio"
reported_value = 1.46

[[record]]
mutation_label = "U7A U8C G9U U10G U11G C12U C13A"
assay_metric = "aptazyme ON/OFF ratio"
reported_value = 1.07

[[record]]
mutation_label = "U7A U8G G9U U10A U11G C12G C13U"
assay_metric = "aptazyme ON/OFF ratio"
reported_value = 1.52

[[record]]
mutation_label = "U7G U8G U10A C12A"
assay_metric = "aptazyme ON/OFF ratio"
reported_value = 1.28

[[record]]
mutation_label = "U8G G9A U10C U11C C12G"
assay_metric = "aptazyme ON/OFF ratio"
reported_value = 1.05

[[record]]
mutation_label = "U7G U8G G9A C12U C13A"
assay_metric = "aptazyme ON/OFF ratio"
reported_value = 1.27

[[record]]
mutation_label = "U7G U8G G9A U10C U11A C12A"
assay_metric = "aptazyme ON/OFF ratio"
reported_value = 1.34

[[record]]
mutation_label = "U7A U8C U10A C12U C13G"
assay_metric = "aptazyme ON/OFF ratio"
reported_value = 1.08

[[record]]
mutation_label = "U8G G9A U10C U11A C12A"
assay_metric = "aptazyme ON/OFF ratio"
reported_value = 1.22

[[record]]
mutation_label = "U7C U8A C12U C13A"
assay_metric = "aptazyme ON/OFF ratio"
reported_value = 1.17

[[record]]
mutation_label = "U7G U8A U10C U11G C12G C13G"
assay_metric = "aptazyme ON/OFF ratio"
reported_value = 1.11

